Source: patent US20250289893A1

Recorded measurements of Fluorescence Intensity Geomean (normalized to background), one per entry
Measured on: Cynomolgus monkey CD1a expressed on HEK-293 cells (Cynomolgus monkey, UniProt A0A2K5VQ68 17-326)
Sequence (A0A2K5VQ68 entry or part of it): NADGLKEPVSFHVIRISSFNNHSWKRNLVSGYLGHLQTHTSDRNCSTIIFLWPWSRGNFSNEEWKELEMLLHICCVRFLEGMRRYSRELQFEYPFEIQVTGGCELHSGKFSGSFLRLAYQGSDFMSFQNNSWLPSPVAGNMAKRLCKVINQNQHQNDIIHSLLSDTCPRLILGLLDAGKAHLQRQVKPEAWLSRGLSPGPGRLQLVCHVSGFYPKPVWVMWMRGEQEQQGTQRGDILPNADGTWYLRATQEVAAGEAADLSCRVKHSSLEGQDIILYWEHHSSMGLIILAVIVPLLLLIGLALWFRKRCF
Assay details: flow cytometry, HEK-293 cells, 10 µg/ml antibody
Response body: numeric value in fold over background, unit text excluded.

>>> recorded_value("116 (VR12117) (antibody, V domains shown, also called OX116) VH: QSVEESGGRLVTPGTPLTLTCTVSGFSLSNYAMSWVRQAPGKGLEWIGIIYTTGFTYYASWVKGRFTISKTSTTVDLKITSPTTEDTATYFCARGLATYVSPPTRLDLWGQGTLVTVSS VL: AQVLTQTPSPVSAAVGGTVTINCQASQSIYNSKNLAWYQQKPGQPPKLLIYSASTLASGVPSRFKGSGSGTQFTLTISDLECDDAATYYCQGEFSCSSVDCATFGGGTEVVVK")
1.7

# input for lookup
Quote Fluorescence Intensity Geomean (normalized to background) reported for 16 (VR11834) (antibody, V domains shown, also called OX16; antibody 16) VH: EVQLVESGGGLVKPGGSLKLSCAASGFTFSNYAMSWVRQTPEKRLEWVAAINSNGGSAYYPDTVKDRFTISRDNAKNTLYLQMSSLRSEDTALYYCARRFYYDYGWFAYWGQGTLVTVSS VL: DIVLTQSPASLSASVGETVTITCRASENIDSYLAWYQQKQGKSPQLLVYAATLLADGVPSRFSGSGSGTQYSLKINSLQSEDVARYYCQHYYSSPWTFGGGTKLEIK please. 8.8
